Here the recorded pEC50 is given for each entry.
MEASURED TARGET: huCMKLR1 (Homo sapiens)
Sequence (Q99788 whole entry): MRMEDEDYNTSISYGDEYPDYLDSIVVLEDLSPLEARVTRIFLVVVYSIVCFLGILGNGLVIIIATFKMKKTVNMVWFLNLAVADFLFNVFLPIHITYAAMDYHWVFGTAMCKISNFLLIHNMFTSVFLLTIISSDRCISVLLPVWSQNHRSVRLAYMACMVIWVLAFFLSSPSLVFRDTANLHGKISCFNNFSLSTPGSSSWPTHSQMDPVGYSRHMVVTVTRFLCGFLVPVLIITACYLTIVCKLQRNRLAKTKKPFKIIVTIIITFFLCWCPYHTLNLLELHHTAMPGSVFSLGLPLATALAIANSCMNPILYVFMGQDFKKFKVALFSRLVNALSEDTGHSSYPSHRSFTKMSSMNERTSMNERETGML
ASSAY PROCEDURE: Calcium mobilization assay
EXPERIMENTAL CONDITIONS: HEK293a huCMKLR1 Gα16 cells, Fluo-4 AM; three independent experiments, mean ± SD; read-out: Ca^2+ assay EC50
Where a SMILES comes first, the peptide text is derived from it. [ ]: non-standard residue; d: D form. The star is where a group is joined. DOTA = O=C(O)CN1CCN(CC(=O)O)CCN(CC(=O)*)CCN(CC(=O)O)CC1; Hyp = O=C(O)[C@@H]1C[C@@H](O)CN1; Tic = O=C(O)[C@@H]1Cc2ccccc2CN1; Cha = N[C@@H](CC1CCCCC1)C(=O)O; Cit = NC(=O)NCCC[C@H](N)C(=O)O; Octanoyl = CCCCCCCC(=O)*; Ahx = NCCCCCC(=O)O
The read-out pEC50 is expressed as -log10 of concentration in moles per litre.

INSERT INTO results (molecule, value_observed) VALUES
  ('CSCC[C@H](NC(=O)CNC(=O)[C@@H]1CCCN1C(=O)[C@H](CC1CCCCC1)NC(=O)[C@@H](N)Cc1ccc(O)cc1)C(=O)N[C@@H](Cc1ccc(O)cc1)C(=O)N[C@@H](C)C(=O)N[C@@H](Cc1ccccc1)C(=O)N[C@H](Cc1ccccc1)C(=O)O [CG36] (H-Y[Cha]PGMYAF[dF]-OH)', 9.05),
  ('CCCCCCCC(=O)NCCCC[C@H](NC(=O)CN1CCN(CC(=O)O)CCN(CC(=O)O)CCN(CC(=O)O)CC1)C(=O)N[C@@H](Cc1ccc(O)cc1)C(=O)N[C@@H](CC1CCCCC1)C(=O)N1C[C@H](O)C[C@H]1C(=O)NCC(=O)N[C@@H](CCCNC(N)=O)C(=O)N[C@@H](Cc1ccccc1)C(=O)N[C@H](C)C(=O)N1Cc2ccccc2C[C@H]1C(=O)N[C@@H](CO)C(=O)O [DOTA-KCap-CG34] ({DOTA}-K(Octanoyl)Y[Cha][Hyp]G[Cit]F[dA][Tic]S-OH)', 8.87),
  ('CSCC[C@H](NC(=O)CNC(=O)[C@@H]1CCCN1C(=O)[C@H](CC1CCCCC1)NC(=O)[C@H](Cc1ccc(O)cc1)NC(=O)CCCCCNC(=O)CN1CCN(CC(=O)O)CCN(CC(=O)O)CCN(CC(=O)O)CC1)C(=O)N[C@@H](Cc1ccc(O)cc1)C(=O)N[C@@H](C)C(=O)N[C@@H](Cc1ccccc1)C(=O)N[C@H](Cc1ccccc1)C(=O)O [DOTA-AHX-CG36] ({DOTA-Ahx}-Y[Cha]PGMYAF[dF]-OH)', 8.82);

Pending molecule:
Report pEC50 for C[C@@H](NC(=O)[C@H](Cc1ccccc1)NC(=O)[C@H](CCCNC(N)=O)NC(=O)CNC(=O)[C@@H]1C[C@@H](O)CN1C(=O)[C@H](CC1CCCCC1)NC(=O)[C@@H](N)Cc1ccc(O)cc1)C(=O)N1Cc2ccccc2C[C@H]1C(=O)N[C@@H](CO)C(=O)O [CG34] (H-Y[Cha][Hyp]G[Cit]F[dA][Tic]S-OH)
9.40

* * *

ASSAY PROCEDURE: Determination of LogD7.4 values
Format: physicochemical
EXPERIMENTAL CONDITIONS: shake-flask octanol/PBS pH 7.4; 3 µL of 1 mM solution, 300 µL per phase, vortex 1 min, centrifuged 5 min 10,000 x g; HPLC peak area octanol/buffer, both phases analysed
*1 amine or outer side, *2 acyl side, *3 side chain or, on linkers, in order; H or OH if unused. Where a SMILES comes first, the peptide text is derived from it. [ ]: non-standard residue; d: D form. The star is where a group is joined. X1 = O=C(O)CN1CCN(CC(=O)O)CCN(CC(=O)NCCCOCCOCCOCCCN*)CCN(CC(=O)O)CC1; DOTA = O=C(O)CN1CCN(CC(=O)O)CCN(CC(=O)*)CCN(CC(=O)O)CC1; NH(CH2)9CO = O=C(CCCCCCCCCN[*:1])[*:2]; Hyp = O=C(O)[C@@H]1C[C@@H](O)CN1; Tic = O=C(O)[C@@H]1Cc2ccccc2CN1; Cha = N[C@@H](CC1CCCCC1)C(=O)O; Cit = NC(=O)NCCC[C@H](N)C(=O)O; Suc = O=C(CCC(=O)[*:2])[*:1]; Octanoyl = CCCCCCCC(=O)*; Ahx = NCCCCCC(=O)O
Reported logD is given for each of the following compounds.
// no unit string in output, number only

Examples from the recorded data:
INSERT INTO results (compound, value_observed) VALUES
  ('C[C@@H](NC(=O)[C@H](Cc1ccccc1)NC(=O)[C@H](CCCNC(N)=O)NC(=O)CNC(=O)[C@@H]1C[C@@H](O)CN1C(=O)[C@H](CC1CCCCC1)NC(=O)[C@H](Cc1ccc(O)cc1)NC(=O)CCCCCNC(=O)CN1CCN(CC(=O)O)CCN(CC(=O)O)CCN(CC(=O)O)CC1)C(=O)N1Cc2ccccc2C[C@H]1C(=O)N[C@@H](CO)C(=O)O [DOTA-AHX-CG34] ({DOTA-Ahx}-Y[Cha][Hyp]G[Cit]F[dA][Tic]S-OH)', -0.96),
  ('C[C@@H](NC(=O)[C@H](Cc1ccccc1)NC(=O)[C@H](CCCNC(N)=O)NC(=O)CNC(=O)[C@@H]1C[C@@H](O)CN1C(=O)[C@H](CC1CCCCC1)NC(=O)[C@H](Cc1ccc(O)cc1)NC(=O)CCCCCCCCCNC(=O)CN1CCN(CC(=O)O)CCN(CC(=O)O)CCN(CC(=O)O)CC1)C(=O)N1Cc2ccccc2C[C@H]1C(=O)N[C@@H](CO)C(=O)O [DOTA-ADX-CG34] ({DOTA}-[NH(CH2)9CO]Y[Cha][Hyp]G[Cit]F[dA][Tic]S-OH)', 1.35),
  ('C[C@@H](NC(=O)[C@H](Cc1ccccc1)NC(=O)[C@H](CCCNC(N)=O)NC(=O)CNC(=O)[C@@H]1C[C@@H](O)CN1C(=O)[C@H](CC1CCCCC1)NC(=O)[C@H](Cc1ccc(O)cc1)NC(=O)CCC(=O)NCCCOCCOCCOCCCNC(=O)CN1CCN(CC(=O)O)CCN(CC(=O)O)CCN(CC(=O)O)CC1)C(=O)N1Cc2ccccc2C[C@H]1C(=O)N[C@@H](CO)C(=O)O [DOTA-TTDS-CG34] ({X1-Suc}-Y[Cha][Hyp]G[Cit]F[dA][Tic]S-OH)', -1.01),
  ('CSCC[C@H](NC(=O)CNC(=O)[C@@H]1CCCN1C(=O)[C@H](CC1CCCCC1)NC(=O)[C@H](Cc1ccc(O)cc1)NC(=O)CCCCCNC(=O)CN1CCN(CC(=O)O)CCN(CC(=O)O)CCN(CC(=O)O)CC1)C(=O)N[C@@H](Cc1ccc(O)cc1)C(=O)N[C@@H](C)C(=O)N[C@@H](Cc1ccccc1)C(=O)N[C@H](Cc1ccccc1)C(=O)O [DOTA-AHX-CG36] ({DOTA-Ahx}-Y[Cha]PGMYAF[dF]-OH)', 2.27);

# evaluate next
Tell me measured logD for CCCCCCCC(=O)NCCCC[C@H](NC(=O)CN1CCN(CC(=O)O)CCN(CC(=O)O)CCN(CC(=O)O)CC1)C(=O)N[C@@H](Cc1ccc(O)cc1)C(=O)N[C@@H](CC1CCCCC1)C(=O)N1C[C@H](O)C[C@H]1C(=O)NCC(=O)N[C@@H](CCCNC(N)=O)C(=O)N[C@@H](Cc1ccccc1)C(=O)N[C@H](C)C(=O)N1Cc2ccccc2C[C@H]1C(=O)N[C@@H](CO)C(=O)O [DOTA-KCap-CG34] ({DOTA}-K(Octanoyl)Y[Cha][Hyp]G[Cit]F[dA][Tic]S-OH) please.
1.29
